- Tested On: human SST-R2 (human, UniProt P30874)
- Sequence (P30874 whole entry): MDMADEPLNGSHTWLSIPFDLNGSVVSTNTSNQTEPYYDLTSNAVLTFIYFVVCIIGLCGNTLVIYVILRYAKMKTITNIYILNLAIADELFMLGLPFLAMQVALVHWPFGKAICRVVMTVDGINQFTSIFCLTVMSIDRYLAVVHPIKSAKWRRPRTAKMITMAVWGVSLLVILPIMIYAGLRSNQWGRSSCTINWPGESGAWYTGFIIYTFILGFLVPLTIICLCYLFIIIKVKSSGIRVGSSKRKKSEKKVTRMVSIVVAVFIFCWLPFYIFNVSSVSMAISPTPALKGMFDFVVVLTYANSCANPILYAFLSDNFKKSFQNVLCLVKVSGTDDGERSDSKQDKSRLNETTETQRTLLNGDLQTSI
- Assay Overview: competition, 125I-Tyr11-SRIF-14 radioligand
Below: a set of entries, each annotated with reported pIC50.
Entry type: numeric. Quantity: pIC50, the -log10 of concentration in molar units.

Sample records with pIC50:
| Binder | Reported Property | Value |
| --- | --- | --- |
| FGFWWKTFG (not fully specified; PTR 3219 core; 5-(aminothionyl)fluorescein-aminopentanoyl conjugate; cyclic GlyS2* to GlyS2*; D-Phe1, D-Trp; C-terminal amide) [YS-1-70] | pIC50 | 8.54 |
| GFWWKTFG (not fully specified; PTR 3213 core; 5- and 6-carboxyfluorescein-GABA conjugate; cyclic GlyS2* to GlyS2*; D-Trp; C-terminal amide) [YS-1-48] | pIC50 | 8.27 |
| KXFWWKTFG (not fully specified; 5- and 6-carboxyfluorescein-Lys; X = GABA; backbone cyclic (GABA* to GlyC3*); D-Trp; C-terminal amide) [PTR 1017A-01] | pIC50 | 7.88 |

Let us examine a further case.
*Q* For the binder shown here, FGFWWKTFG (not fully specified; PTR 3219 core; 5-(aminothionyl)fluorescein-betaAla conjugate; cyclic GlyS2* to GlyS2*; D-Phe1, D-Trp; C-terminal amide) [YS-1-62] , give the reported pIC50.
*A* 8.52
